tgt: S1
assay explanation: BLI
This listing pairs binders with measured Kd.
measured metric: Kd (pM)

binder="Ab 23 (Fc fusion) VH: EVQLVQSGAEVKKPGSSVKVSCRSSGGTFSTYGITWVRQAPGQGLEWMGRIIPSLGIPNYAQKFQGRVTITADTSVSTAWMELSSLESDDTAIYYCARENIDLATNDFWGQGTLVTVSS VL: QSALTQPPSASGSPGQSVTISCTGTSRDIGAYGYVSWYQQVPGKAPKLIIYEVRNRPSGVSSRFSGSKSGNTASLTISGLQAEDEADYYCSSYTSSSTLDVVFGGGTKLTVL" readout_qualifier== observed_value=338
binder="Ab 30 (Fc fusion) VH: QVQLVQSGGGVVQPGKSLRLSCTASGFTFSDFPIHWVRQAPGKGLEWVGVISYDGNIKYYGDSVKGRFTISRDNAKNSLYLQMNSLRVEDTAVYYCARGGSSFDIWGQGTTVTVSS VL: SYELTQPPSVSEAPRQRVTISCSGSTSNIGNNAVSWYQHLPGKAPKLLIYYNERLPSGVSDRFSGSKSGTSASLAISGLRSEDEADYYCAAWDDSLSGHVVFGGGTKLTVL" readout_qualifier== observed_value=314
binder="Ab 2-7 (Fc fusion) chain 1: QVTLKESGPTRVKPTQTLTLTCTFSGFSLSTTGVGVGWIRQPPGKALEWLALIYWNDDKRYSPSLKSRLTITKDTSKNQVVLTMTNMDPVDTATYYCARISGSGYFYPFDIWGQGTTVTVSS chain 2: NFMLTQPHSVSESPGKTVTISCTRSSGSIASNYVQWYQQRPGSSPTTVIYEDNQRPSGVPDRFSGSIDSSSNSASLTISGLKAEDEADYYCQSYDSSSLWVFGGGTKLTVL" readout_qualifier=< observed_value=1
binder="Ab 25 (Fc fusion) VH: QVQLVQSGGGLVQPGGSLRLSCAASGFTFSSYWMSWVRQAPGKGLEWVANIKQDGSEKYYVDSVKGRFTISRDNAKNSLYLQMNSLRAEDTAVYYCARGFYYYGAFDIWGQGTTVTVSS VL: NFMLTQPHSVSESPGKTVTISCTGSSGSIASNYVQWYQQRPGSAPTTVIYEDNQRPSGVPDRFSGSIGSSSNSASLTISGLKTEDEADYYCQSYDSSNHWVFGGGTKLTVL" readout_qualifier== observed_value=10100
